Biological target: D(2) dopamine receptor (Homo sapiens)
Assay: Dopamine D2 receptor (DRD2) small molecule agonists, cell-based qHTS assay (AID 1963594); further: nearly all actives have a fitted effect of over 35% in size
Settings: HEK293-DRD2 cAMP HTRF, agonist mode, 30 min; series mostly up to 92.4 µM
Records with an inconclusive call do not appear. Calls of active or inactive are those of the source. The call rests on the fitted dose curve.
experimental.readout: activation

compound=C=COCCOCCOCCOC=C reported_value=inactive
compound=C[N+]1([O-])CCOCC1 reported_value=inactive
compound=COc1c2ccoc2cc2oc(=O)ccc12 reported_value=inactive
compound=O=C1C=CC(=O)O1 reported_value=inactive
compound=C=C(C)[C@@H]1CCC2=CCC[C@@H](C)[C@]2(C)C1 reported_value=inactive
compound=CC(=O)CC/C=C(\C)CC/C=C(\C)CC/C=C(\C)CCC=C(C)C reported_value=inactive
compound="CC(O)C(C)O (centres undefined)" reported_value=inactive
compound=CCCO[Si](OCCC)(OCCC)OCCC reported_value=inactive
compound=CC(=O)OCC1=C(C(=O)O)N2C(=O)[C@@H](NC(=O)Cc3cccs3)[C@H]2SC1 reported_value=inactive
compound=C=C(CC)C(=O)c1ccc(OCC(=O)O)c(Cl)c1Cl reported_value=inactive
compound=COc1nc(N)nc2nc[nH]c12 reported_value=inactive
compound=N[C@@H](Cc1c[nH]c2ccccc12)C(=O)O reported_value=inactive
compound=CC(C)OCCO reported_value=inactive
compound=C[N+](C)(C)CCO reported_value=inactive

====

Assay: p53 small molecule agonists, cell-based qHTS assay with human liver microsomes (AID 1963577);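 further: p53 response element beta-lactamase reporter cells with liver microsomes plus NADPH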
Details: HCT-116 p53RE-bla with human liver microsomes, ratio, 16 h; series mostly up to 66 µM
Inconclusive results are not listed. The source made the active and inactive calls. Calls come from the whole dose curve. Numbered stars: 1 amine (or outer) side, 2 acyl side, 3 side chain; on linkers, the order of the positions; unused ones are H or OH. Bridge positions count the residues as written; N and C are the ends. Square brackets hold non-standard residues; d marks the D form. Peptide text beside a SMILES is read from it. I, II: the chains in the order shown. Actinocin(9to1) = Cc1c2oc3c(C)ccc(C(=O)[*:1])c3nc-2c(C(=O)[*:2])c(N)c1=O; NMeV = CN[C@H](C(=O)O)C(C)C; Sar = CNCC(=O)O
experimental.readout: activation

compound=CCc1occc(=O)c1O reported_value=inactive
compound="Cc1c2oc3c(C)ccc(C(=O)N[C@@H]4C(=O)N[C@H](C(C)C)C(=O)N5CCC[C@H]5C(=O)N(C)CC(=O)N(C)[C@@H](C(C)C)C(=O)O[C@@H]4C)c3nc-2c(C(=O)N[C@@H]2C(=O)N[C@H](C(C)C)C(=O)N3CCC[C@H]3C(=O)N(C)CC(=O)N(C)[C@@H](C(C)C)C(=O)O[C@@H]2C)c(N)c1=O (I: T[dV]P[Sar][NMeV] / II: T[dV]P[Sar][NMeV]; ester I:1-I:C, II:1-II:C; linker I:N-II:N via Actinocin(9to1))" reported_value=inactive
compound=CCN[C@H]1CN(CCCOC)S(=O)(=O)c2sc(S(N)(=O)=O)cc21 reported_value=inactive
compound=O=C(O)c1ccc(OCCN2CCCCC2)cc1 reported_value=inactive
compound="CC(S)C(=O)NCC(=O)O (stereo unspecified)" reported_value=inactive
compound=C[C@@H]1O[C@@H](OC[C@H]2O[C@@H](Oc3c(-c4ccc(O)c(O)c4)oc4cc(O)cc(O)c4c3=O)[C@H](O)[C@@H](O)[C@@H]2O)[C@H](O)[C@H](O)[C@H]1O reported_value=inactive
